# test target: CDK2-CYCLINA (Homo sapiens)
# method summary: Microfluidic LabChip inhibition assay, CDK2-CYCLINA
# Type: biochemical
# run parameters: Table 3b; ATP 50 μM
pIC50: −log10 of the molar value.
observed property: pIC50

1: CC(=O)c1c(C)c2cnc(Nc3ccc(OCCN(C)C)c(C)c3)nc2n(C2CCCC2)c1=O
2: CN1CC2(C1)CN(c1ccc(Nc3ncc4cc(C#N)c(=O)n(C5CCCC5)c4n3)cc1)C2
Could you check which of 1 and 2 has a smaller value for pIC50? // respond with label for picked entry
1
(1: 5.11, 2: 6.30)

P: CC(=O)c1c(C)c2cnc(Nc3ccc(N(C)CCN(C)C)cc3)nc2n(C23CC(C2)C3)c1=O
Q: CC(=O)c1c(C)c2cnc(Nc3ccc(N4CC(C)NC(C)C4)cc3)nc2n(C2CCCC2)c1=O (centres unmarked)
Could you check which of P and Q has a smaller value for pIC50? // respond with label for picked entry
P
(P: 5.82, Q: 6.71)

----------
# test target: CDK6-CYCLIND3 (Homo sapiens, UniProt Q00534)
# Sequence (Q00534 whole entry): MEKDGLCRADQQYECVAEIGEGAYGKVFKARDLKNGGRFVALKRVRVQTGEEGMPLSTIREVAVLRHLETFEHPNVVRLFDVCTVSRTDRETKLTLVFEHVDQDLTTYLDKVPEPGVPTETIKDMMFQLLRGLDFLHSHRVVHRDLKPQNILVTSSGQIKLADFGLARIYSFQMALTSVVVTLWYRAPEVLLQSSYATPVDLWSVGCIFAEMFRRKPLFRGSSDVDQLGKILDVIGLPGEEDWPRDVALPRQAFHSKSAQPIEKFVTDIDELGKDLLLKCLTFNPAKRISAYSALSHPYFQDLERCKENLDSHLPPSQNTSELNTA
# Sequence (P30281 whole entry partner): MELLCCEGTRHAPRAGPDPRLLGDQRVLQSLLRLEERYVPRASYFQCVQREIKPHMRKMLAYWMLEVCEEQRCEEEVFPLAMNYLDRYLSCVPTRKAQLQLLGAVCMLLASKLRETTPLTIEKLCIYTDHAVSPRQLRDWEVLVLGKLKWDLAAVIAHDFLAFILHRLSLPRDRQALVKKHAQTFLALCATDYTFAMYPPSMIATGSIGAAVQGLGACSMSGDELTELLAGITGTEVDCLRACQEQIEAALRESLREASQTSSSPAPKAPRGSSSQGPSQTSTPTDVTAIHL
# method summary: Microfluidic LabChip inhibition assay, CDK6-CYCLIND3
# Format: biochemical
# run parameters: Table 2; ATP 300 μM, 25° C.; read-out: CDK6 IC50
pIC50: −log10 of the molar value.
observed property: pIC50

N#Cc1cc2cnc(Nc3ccc(OCCN4CCCCC4)nc3)nc2n(C2CCCC2)c1=O | 7.26

P: N#Cc1cc2cnc(Nc3ccc(N4CCOCC4)c(F)c3)nc2n(C2CCCC2)c1=O
Q: CN1CCN(c2ccc(Nc3ncc4cc(C#N)c(=O)n(C56CC(C5)C6)c4n3)nc2)CC1
R: N#Cc1cc2cnc(Nc3ccc(N4CCNCC4)cn3)nc2n(C23CC(C2)C3)c1=O
S: N#Cc1cc2cnc(Nc3ccc(N4CCNCC4)nc3)nc2n(C2CCCC2)c1=O
List these items ordered by pIC50, big to small. // ordering of labels required in reply
S, P, R, Q

----------
# test target: CDK9-CYCLINT1 (Homo sapiens)
# Sequence (P50750 whole entry): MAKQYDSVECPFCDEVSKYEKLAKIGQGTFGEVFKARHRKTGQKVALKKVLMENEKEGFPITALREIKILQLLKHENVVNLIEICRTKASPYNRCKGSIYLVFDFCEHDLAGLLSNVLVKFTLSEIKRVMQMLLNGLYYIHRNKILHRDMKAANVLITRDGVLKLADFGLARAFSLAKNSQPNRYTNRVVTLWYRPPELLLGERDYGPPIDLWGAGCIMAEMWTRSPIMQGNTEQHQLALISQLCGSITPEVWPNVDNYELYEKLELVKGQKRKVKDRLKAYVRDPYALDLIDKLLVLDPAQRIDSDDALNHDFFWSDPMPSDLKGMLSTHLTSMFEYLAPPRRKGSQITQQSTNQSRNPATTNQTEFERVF
# Sequence (O60563 whole entry partner): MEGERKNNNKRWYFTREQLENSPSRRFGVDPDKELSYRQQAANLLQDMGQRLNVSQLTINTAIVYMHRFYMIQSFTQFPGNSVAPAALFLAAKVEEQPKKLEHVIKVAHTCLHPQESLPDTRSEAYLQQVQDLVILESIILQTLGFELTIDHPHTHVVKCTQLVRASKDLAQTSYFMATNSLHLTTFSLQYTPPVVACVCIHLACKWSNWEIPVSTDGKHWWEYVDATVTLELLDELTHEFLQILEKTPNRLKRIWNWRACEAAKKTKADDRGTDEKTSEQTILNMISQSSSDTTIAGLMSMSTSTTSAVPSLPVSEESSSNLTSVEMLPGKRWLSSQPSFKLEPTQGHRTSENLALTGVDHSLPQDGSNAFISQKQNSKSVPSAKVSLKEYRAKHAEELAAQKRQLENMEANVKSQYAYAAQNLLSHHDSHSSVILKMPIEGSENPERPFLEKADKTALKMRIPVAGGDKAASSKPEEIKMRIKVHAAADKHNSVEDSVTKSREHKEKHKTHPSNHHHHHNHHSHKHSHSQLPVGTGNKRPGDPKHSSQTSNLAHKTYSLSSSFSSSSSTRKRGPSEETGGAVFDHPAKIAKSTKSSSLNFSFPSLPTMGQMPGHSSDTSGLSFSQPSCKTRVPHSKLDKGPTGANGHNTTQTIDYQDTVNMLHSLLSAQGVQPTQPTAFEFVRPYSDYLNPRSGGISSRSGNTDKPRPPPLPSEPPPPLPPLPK
# method summary: Microfluidic LabChip inhibition assay, CDK9-CYCLINT1
# Type: biochemical
# run parameters: Table 3b; ATP 10 μM
pIC50: −log10 of the molar value.
observed property: pIC50

CC(=O)c1c(C)c2cnc(Nc3ccc(OCCN(C)C)cc3)nc2n(C2CCCC2)c1=O [Compound B60] | 7.50
CN(C)C(=O)c1cc2cnc(NC3CCN(S(C)(=O)=O)CC3)nc2n(C2CCCC2)c1=O | 5.34
CC(=O)c1c(C)c2cnc(Nc3ccc(OCCN(C)C)c(C)c3)nc2n(C2CCCC2)c1=O | 6.10

I: CC(=O)c1c(C)c2cnc(Nc3ccc(OCCN4CCCC4)cn3)nc2n(C2CCCC2)c1=O
II: Cc1c(C(=O)N(C)C)c(=O)n(C23CC(C2)C3)c2nc(NC3CC4CCC3C4)ncc12 (centres unmarked) [Compound B157]
III: CC(=O)c1c(C)c2cnc(Nc3ccc(N4CCN(C)CC4)cc3)nc2n(C23CC(C2)C3)c1=O
IV: Cc1c(C(=O)N(C)C)c(=O)n(C2CCCC2)c2nc(Nc3ccc(N4CC(C)NC(C)C4)cc3)ncc12 (centres unmarked)
V: CN(C)CCOc1ccc(Nc2ncc3cc(C#N)c(=O)n(C45CC(C4)C5)c3n2)nc1
I would appreciate it if you could sort these 5 compounds by pIC50, starting from the smallest number. // ordering of labels required in reply
IV, II, V, I, III
(IV: 5.29, II: 5.61, V: 6.13, I: 6.37, III: 7.01)

a: COc1cc(Nc2ncc3c(C)c(C(C)=O)c(=O)n(C4CCCC4)c3n2)ccc1OCCN(C)C
b: CN1CC2(C1)CN(c1ccc(Nc3ncc4cc(C#N)c(=O)n(C5CCCC5)c4n3)cc1)C2
c: Cc1c(C(=O)N(C)C)c(=O)n(C23CC(C2)C3)c2nc(NC3CC4CCC3C4)ncc12 (centres unmarked) [Compound B158]
List these items ordered by pIC50, big to small. // ordering of labels required in reply
b, a, c

P: N#Cc1cc2cnc(Nc3ccc(N4CCN(CCO)CC4)c(F)c3)nc2n(C2CCCC2)c1=O
Q: CC(=O)c1c(C)c2cnc(Nc3ccc(N4CCN(C)CC4)cn3)nc2n(C23CC(C2)C3)c1=O
Could you check which of P and Q has a smaller value for pIC50? // respond with label for picked entry
Q
(Q: 5.91, P: 7.56)
